- Study System: human EGFR (huEGFR) over-expressed on mcl-1-/- mouse embryonic fibroblasts (human, UniProt P00533 25-1210)
- Protocol: cell-based or functional assay

Binder	huEGFR+ mcl-1-/- MEF EC50
AbB-AAD (antibody, human IgG1, kappa, V domains shown, synthon AAD on reduced interchain cysteines; average DAR 2.7 per ADC) VH: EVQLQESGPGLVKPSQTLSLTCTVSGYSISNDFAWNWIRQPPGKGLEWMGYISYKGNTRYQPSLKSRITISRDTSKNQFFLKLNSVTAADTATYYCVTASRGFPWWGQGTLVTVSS VL: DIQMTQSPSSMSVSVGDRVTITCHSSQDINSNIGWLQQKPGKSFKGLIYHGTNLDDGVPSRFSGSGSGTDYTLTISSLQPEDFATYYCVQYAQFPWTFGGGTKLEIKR	4.6 nM
AbB-YY (antibody, human IgG1, kappa, V domains shown, synthon YY on reduced interchain cysteines; average DAR 2.2 per ADC) VH: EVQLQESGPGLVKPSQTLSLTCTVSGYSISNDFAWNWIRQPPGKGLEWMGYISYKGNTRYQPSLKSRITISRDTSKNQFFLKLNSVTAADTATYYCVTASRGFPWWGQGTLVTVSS VL: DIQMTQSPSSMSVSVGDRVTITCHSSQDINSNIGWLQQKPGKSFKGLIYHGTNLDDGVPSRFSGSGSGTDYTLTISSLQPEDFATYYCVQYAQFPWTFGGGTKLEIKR	51 nM
AbB-KZ (antibody, human IgG1, kappa, V domains shown, synthon KZ on reduced interchain cysteines; average DAR 1.9 per ADC) VH: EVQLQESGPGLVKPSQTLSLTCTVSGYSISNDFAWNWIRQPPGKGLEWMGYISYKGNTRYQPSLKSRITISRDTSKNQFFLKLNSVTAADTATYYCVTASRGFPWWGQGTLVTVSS VL: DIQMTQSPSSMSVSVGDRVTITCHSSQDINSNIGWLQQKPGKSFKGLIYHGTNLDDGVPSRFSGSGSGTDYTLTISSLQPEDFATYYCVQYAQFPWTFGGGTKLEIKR	55 nM
